Every entry's value here was drawn from patent US7173019B2.

Assay system: IL-8 (Homo sapiens)
Sequence (P10145 21-99, species assumed): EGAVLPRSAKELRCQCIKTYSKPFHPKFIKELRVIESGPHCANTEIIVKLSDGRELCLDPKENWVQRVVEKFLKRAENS
Experiment summary: Biacore biosensor: inhibition of IL-8 binding to immobilised heparin and heparan sulfate
Test parameters: immobilised heparan sulfate; inhibitor 1.0 μM, IL-8 0.068 μM
Endpoint name: Inhibition of binding of IL-8 (HS)

Ask | For the molecule O=S(=O)(O)OC1C=CC(N(Cc2ccc(CN(C3C=CC(OS(=O)(=O)O)C(OS(=O)(=O)O)C3OS(=O)(=O)O)C3C=CC(OS(=O)(=O)O)C(OS(=O)(=O)O)C3OS(=O)(=O)O)cc2)C2C=CC(OS(=O)(=O)O)C(OS(=O)(=O)O)C2OS(=O)(=O)O)C(OS(=O)(=O)O)C1OS(=O)(=O)O (stereo not shown) [Compound 4e] , what Inhibition of binding of IL-8 (HS) is on record?
Reply | 65% (HS)
